Molecular target: TcPink1 (Tribolium castaneum)
Construct: host or cells: E. coli Rosetta (DE3)
Sequence (D6WMX4 6-570): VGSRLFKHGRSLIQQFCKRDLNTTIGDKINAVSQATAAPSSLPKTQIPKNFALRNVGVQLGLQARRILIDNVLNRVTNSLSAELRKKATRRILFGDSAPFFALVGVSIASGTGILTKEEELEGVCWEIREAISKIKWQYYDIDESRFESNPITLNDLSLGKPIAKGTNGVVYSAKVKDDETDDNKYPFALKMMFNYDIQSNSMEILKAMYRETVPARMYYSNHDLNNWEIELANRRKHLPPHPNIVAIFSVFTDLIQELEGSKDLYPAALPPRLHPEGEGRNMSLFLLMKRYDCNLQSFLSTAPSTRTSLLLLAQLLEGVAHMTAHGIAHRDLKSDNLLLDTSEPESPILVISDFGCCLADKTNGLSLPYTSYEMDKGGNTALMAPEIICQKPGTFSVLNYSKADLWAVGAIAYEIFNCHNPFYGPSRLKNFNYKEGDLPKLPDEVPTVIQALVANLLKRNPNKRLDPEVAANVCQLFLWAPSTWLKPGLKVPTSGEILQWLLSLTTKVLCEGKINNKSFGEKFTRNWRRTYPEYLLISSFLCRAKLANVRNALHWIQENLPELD
Test: Peptide binding to immobilized protein in vitro, field-effect biosensing (FEB)
Conditions: AGILE Dev Kit graphene biosensor chip, protein 500 nM immobilized by EDC/sulfo-NHS, analyte 50 µL in PBS pH 7.4, Hill fit, mean ± SEM, read-out: KD of the peptides binding to TcPink1
Protocol: In brief: Protein was immobilized/cross-linked into the carboxyl group present on the activated graphene biosensor chip. The analyte is applied in solution to the chip and when an interaction occurs, an alteration in the current (I) is measured and recorded in real-time throughout the experiment. […] After the experiment, data at the concentration points of the analytes were exported from 3 transistors, averaged, and any background drift recorded in PBS was subtracted. […]
metricName: Kd (µM)
I only need the number, in µM, no unit after it.

Supply recorded Kd for Ac-GLQRMVLVDLKGGYGRKKRRQRRR-NH2 [CVP-198] here.
130
